Listed here: items and their measured Papp at 24 h, 10 μg/mL.
# assay text: Porcine scleral permeability (modified Ussing chamber)
# Format: in vitro ADME
# test context: pig, pH 7.4, porcine excised eye tissue, 10 μg/mL compound on donor side
# do not omit the unit; it follows the number

Here is how some compounds turned out for Papp at 24 h, 10 μg/mL.
[
  {
    "compound": "Cn1ccc(CN2CCN(c3ccc(C(F)(F)F)cc3NC(=O)c3ccc(C4CCOCC4)o3)CC2)n1 [Compound 1]",
    "Papp at 24 h, 10 μg/mL": "0.067 ×10⁻⁶ cm/s"
  },
  {
    "compound": "Cn1ccc(CN2CCCN(c3ccc(C(F)(F)F)cc3NC(=O)c3ccc(C4CCOCC4)o3)CC2)n1 [Compound 2]",
    "Papp at 24 h, 10 μg/mL": "0.0442 ×10⁻⁶ cm/s"
  }
]

Attention now turns to another entry.
Specify measured Papp at 24 h, 10 μg/mL for Cn1ccc(CN2CCCN(c3ccc(Cl)cc3NC(=O)c3ccc(C4CCOCC4)o3)CC2)n1 [Compound 3] . 0.0675 ×10⁻⁶ cm/s

====

# assay text: Non-human primate pharmacokinetic study (eye drops)
# Type: in vivo, Cynomolgus monkeys
# test context: cynomolgus, cynomolgus monkey, aqueous humour, topical or ocular; monkey, after administration of 1.5 mg/mL eye drop
outcome measure: half-life (h)
Return type: number; implicit unit h.

Specify measured half-life for "Cn1ccc(CN2CCN(c3ccc(C(F)(F)F)cc3NC(=O)c3ccc(C4CCOCC4)o3)CC2)n1" . 2

====

Listed here: items and their measured pIC50.
# measured target: UniProt:Q96SB4
# Sequence (Q96SB4 whole entry): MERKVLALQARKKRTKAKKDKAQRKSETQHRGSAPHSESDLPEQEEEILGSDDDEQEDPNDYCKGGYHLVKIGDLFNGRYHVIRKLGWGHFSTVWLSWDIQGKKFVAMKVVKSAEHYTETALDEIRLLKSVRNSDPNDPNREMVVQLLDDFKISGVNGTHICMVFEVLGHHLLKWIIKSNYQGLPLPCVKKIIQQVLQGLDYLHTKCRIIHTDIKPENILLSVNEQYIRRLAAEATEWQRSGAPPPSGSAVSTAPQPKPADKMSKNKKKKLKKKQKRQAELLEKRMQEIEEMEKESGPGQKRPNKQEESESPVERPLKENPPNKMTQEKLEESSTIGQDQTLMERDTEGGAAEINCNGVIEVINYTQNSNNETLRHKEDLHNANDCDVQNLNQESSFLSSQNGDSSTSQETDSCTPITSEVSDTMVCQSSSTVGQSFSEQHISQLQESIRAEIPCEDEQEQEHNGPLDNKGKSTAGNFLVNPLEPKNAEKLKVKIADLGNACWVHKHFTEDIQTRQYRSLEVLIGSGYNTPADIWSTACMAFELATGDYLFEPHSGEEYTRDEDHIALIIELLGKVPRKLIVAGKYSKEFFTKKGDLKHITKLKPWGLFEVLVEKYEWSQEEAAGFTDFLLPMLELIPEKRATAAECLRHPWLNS
// pIC50 here means minus log10 of the molar concentration (mol/L)

Here is how some compounds turned out for pIC50.
[
  {
    "smiles repr": "Cn1ccc(CN2CCCN(c3ccc(C(F)(F)F)cc3NC(=O)c3ccc(C4CCOCC4)o3)CC2)n1",
    "pIC50": 8.00
  },
  {
    "smiles repr": "Cn1ccc(CN2CCN(c3ccc(C(F)(F)F)cc3NC(=O)c3ccc(C4CCOCC4)o3)CC2)n1",
    "pIC50": 8.40
  }
]

Attention now turns to another entry.
Specify measured pIC50 for "Cn1ccc(CN2CCCN(c3ccc(Cl)cc3NC(=O)c3ccc(C4CCOCC4)o3)CC2)n1" . 7.46

Where do these numbers come from? They come from patent US12024504B2.
